Values from patent US9133484B2

experiment: Cytotoxicity, MTT cell proliferation assay (Cell Titer 96 Aqueous One Solution); type: cell-based; conditions: human, U87MG malignant glioma cells
observable: CC50 at 24 h

# input Report CC50 at 24 h for Ac-AAAAAAK-NH2 [peptide surfactant, Ac-AAAAAAK-NH2] please.
# output 286 µg/mL
